- assay: Plasma pharmacokinetics in patients
- Format: in vivo, human
- settings: human, plasma, oral, 75 mg
property: half-life

Q: Please look up its half-life: Cn1cnc2c(F)c(Nc3ccc(Br)cc3Cl)c(C(=O)NOCCO)cc21
Result: 6.4 h
